molecular target: GCN2_T; assay: two-hybrid library CCmax;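 also: natural log of median RNA to DNA barcode read ratio; higher means stronger binding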
assayMetric: interaction score

{"binder": "DKNAALEAEIAALEAEIAALEAEIAALEG [4H3073-AA]", "interaction score": -1.05}

a. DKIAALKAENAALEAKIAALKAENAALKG [4H2732-AA]
b. DKLAAAKAEIAALEAELAANEAKKAALKG [AP8-AA]
c. DEIAALEAEIAALEAKNAALKAEIAALKG [4H58-AA]
Challenge: Sort low-to-high on interaction score, please. // list labels; follow requested order
Response given: b, a, c
(b: -1.88, a: -1.15, c: -0.172)
